- TEST SUMMARY: Mouse pharmacokinetic study, IV (Example 2)
- COND: BL/6, mouse, plasma, iv, 1 mg/kg
Where a SMILES comes first, the peptide text is derived from it.
ATTRIBUTE MEASURED: half-life

compound="CSCC[C@H](NC(=O)CNC(=O)[C@H](CCCCN)NC(=O)CNC(=O)[C@H](CCSC)NC(=O)[C@H](CCC(=O)O)NC(=O)[C@H](CCC(=O)O)NC(=O)[C@H](CC(N)=O)NC(=O)CNC(=O)[C@H](CC(=O)O)NC(=O)[C@@H](N)CCC(N)=O)C(=O)N[C@@H](CCC(=O)O)C(=O)N[C@@H](CCC(=O)O)C(=O)N[C@@H](CC(N)=O)C(=O)NCC(=O)N[C@@H](CC(=O)O)C(=O)N[C@@H](CCC(N)=O)C(=O)O (H-QDGNEEMGKGMEENGDQ-OH)" attribute_measured=half-life recorded_result="3 to 10 min"
compound="CSCC[C@H](NC(=O)CNC(=O)[C@H](CCCCN)NC(=O)CNC(=O)[C@H](CCSC)NC(=O)[C@H](CCC(=O)O)NC(=O)[C@H](CCC(=O)O)NC(=O)[C@H](CC(N)=O)NC(=O)CNC(=O)[C@H](CC(=O)O)NC(=O)[C@@H](N)CCC(N)=O)C(=O)N[C@@H](CCC(=O)O)C(=O)N[C@@H](CCC(=O)O)C(=O)N[C@@H](CC(N)=O)C(=O)NCC(=O)N[C@@H](CC(=O)O)C(=O)N[C@@H](CCC(N)=O)C(=O)N[C@@H](CS)C(=O)O (H-QDGNEEMGKGMEENGDQC-OH; N-terminus and C-terminus assumed)" attribute_measured=half-life recorded_result="3 to 10 min"

---

- TARGET SYSTEM: Steap 1xCD3 TCE SEQ ID NO 373 + 374 + 375
- Sequence (as listed by the source): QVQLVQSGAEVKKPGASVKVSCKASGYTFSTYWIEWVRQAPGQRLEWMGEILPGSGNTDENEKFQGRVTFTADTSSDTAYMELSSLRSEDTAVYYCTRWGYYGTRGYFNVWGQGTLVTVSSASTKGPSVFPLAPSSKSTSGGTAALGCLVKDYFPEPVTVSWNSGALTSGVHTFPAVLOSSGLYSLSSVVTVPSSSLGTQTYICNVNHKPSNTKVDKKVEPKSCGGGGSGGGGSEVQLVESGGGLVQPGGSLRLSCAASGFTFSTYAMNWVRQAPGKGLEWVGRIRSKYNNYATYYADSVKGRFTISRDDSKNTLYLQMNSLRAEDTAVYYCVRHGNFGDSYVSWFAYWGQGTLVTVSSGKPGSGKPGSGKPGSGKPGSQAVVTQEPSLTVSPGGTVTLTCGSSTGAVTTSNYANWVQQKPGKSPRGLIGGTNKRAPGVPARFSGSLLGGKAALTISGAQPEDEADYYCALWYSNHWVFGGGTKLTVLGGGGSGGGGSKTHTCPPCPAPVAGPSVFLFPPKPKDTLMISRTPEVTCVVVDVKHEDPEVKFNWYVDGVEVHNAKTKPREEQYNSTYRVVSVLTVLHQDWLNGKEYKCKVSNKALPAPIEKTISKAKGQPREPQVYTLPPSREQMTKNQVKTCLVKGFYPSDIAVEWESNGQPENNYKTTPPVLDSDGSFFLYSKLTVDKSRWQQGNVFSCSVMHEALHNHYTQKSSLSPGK
- Sequence (as listed by the source partner): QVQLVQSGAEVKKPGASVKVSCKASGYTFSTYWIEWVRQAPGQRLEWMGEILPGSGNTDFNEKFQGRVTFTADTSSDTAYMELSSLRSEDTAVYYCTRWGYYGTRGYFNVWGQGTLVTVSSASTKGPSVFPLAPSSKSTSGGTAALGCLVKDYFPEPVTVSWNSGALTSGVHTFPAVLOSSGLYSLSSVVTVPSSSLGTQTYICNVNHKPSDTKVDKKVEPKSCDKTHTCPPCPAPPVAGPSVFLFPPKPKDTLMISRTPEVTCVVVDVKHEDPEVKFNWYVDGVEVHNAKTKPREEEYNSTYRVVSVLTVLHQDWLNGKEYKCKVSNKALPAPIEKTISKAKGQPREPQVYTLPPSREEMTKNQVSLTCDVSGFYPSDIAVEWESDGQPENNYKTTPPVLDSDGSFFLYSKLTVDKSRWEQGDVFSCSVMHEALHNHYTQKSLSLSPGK
- Sequence (as listed by the source partner): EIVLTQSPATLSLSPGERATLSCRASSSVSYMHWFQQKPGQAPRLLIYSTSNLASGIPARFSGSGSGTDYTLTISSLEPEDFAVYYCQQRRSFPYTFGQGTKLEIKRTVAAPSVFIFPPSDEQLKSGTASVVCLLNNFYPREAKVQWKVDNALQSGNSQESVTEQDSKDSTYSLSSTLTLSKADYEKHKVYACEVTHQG
- TEST SUMMARY: SPR assay of immobilized peptides binding with TCE
- COND: immobilized peptide, Kinetic 1:1 Binding
pKd: −log10 of the molar value.
ATTRIBUTE MEASURED: pKd

substance="pGlu-DGEEELKGC (N-terminal pyroglutamate; VARIANT 1 Pyroglutamic acid)" recorded_result=7.56

---

- TARGET SYSTEM: STEAP1xCD3 TCE
- Sequence (as listed by the source): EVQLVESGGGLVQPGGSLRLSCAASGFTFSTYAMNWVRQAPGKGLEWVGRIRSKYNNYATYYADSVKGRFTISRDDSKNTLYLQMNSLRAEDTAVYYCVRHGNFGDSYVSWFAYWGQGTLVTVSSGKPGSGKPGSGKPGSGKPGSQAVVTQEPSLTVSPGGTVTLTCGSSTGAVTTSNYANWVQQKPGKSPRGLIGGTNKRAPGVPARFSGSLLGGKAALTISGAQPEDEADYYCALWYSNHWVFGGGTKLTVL
- TEST SUMMARY: SPR solution assay of competition binding with TCE
ATTRIBUTE MEASURED: IC50 (nM)

substance="pGlu-DGEEELKGC (N-terminal pyroglutamate; VARIANT 1 Pyroglutamic acid)" attribute_measured=IC50 recorded_result=28.6
